# credit: the OligoGym collection

# Tested System: IRF5
# Recorded Conditions: ASO, KARPAS-229, 0.44444 µM
After the bases stand the sugars from the 5' end (letter, count) and the backbone: PS all phosphorothioate, else s phosphorothioate and o phosphodiester by linkage. Methylation of C is not given here. e = 2'-O-(2-methoxyethyl) (MOE); k = constrained ethyl (cEt); d = 2'-deoxy (DNA)
Measured Endpoint: target mRNA inhibition

>  <Sequence>
CGGTCTTTGAGGTCTG (sugars kkddddddddddkeke, PS)

>  <Result>
31%

$$$$
>  <Sequence>
GGTTCTTGGACTCTCA (sugars kkddddddddddkeke, PS)

>  <Result>
39%

$$$$
>  <Sequence>
GAATTTTGTGACTGTA (sugars k3 d10 k3, PS)

>  <Result>
41%

$$$$
>  <Sequence>
CCATTCTATGCCTTTT (sugars k3 d9 k3 e1, PS)

>  <Result>
31%

$$$$
>  <Sequence>
TATTTCTGCTCCAGGT (sugars k2 d9 e3 k2, PS)

>  <Result>
57%

$$$$

* * *

# target mRNA inhibition listing for each entry below
# Tested System: IRF5
# Recorded Conditions: ASO, KARPAS-229, 4 µM
After the bases stand the sugars from the 5' end (letter, count) and the backbone: PS all phosphorothioate, else s phosphorothioate and o phosphodiester by linkage. Methylation of C is not given here. e = 2'-O-(2-methoxyethyl) (MOE); k = constrained ethyl (cEt); d = 2'-deoxy (DNA)
Measured Endpoint: target mRNA inhibition

>  <Sequence>
AGGTTCTTGGACTCTC (sugars kkkddddddddkekek, PS)

>  <Result>
8%

$$$$
>  <Sequence>
GCACTGACACAGGCGG (sugars kddddddddddkekek, PS)

>  <Result>
0%

$$$$
>  <Sequence>
GTTCTTGGACTCTCAA (sugars kkdddddddddkdkdk, PS)

>  <Result>
20%

$$$$
>  <Sequence>
CTTGTCTAGTGTCATG (sugars k3 d10 k3, PS)

>  <Result>
58%

$$$$
>  <Sequence>
CCCAATGCAACATCCA (sugars kkddddddddddkeke, PS)

>  <Result>
0%

$$$$
>  <Sequence>
TCCAATTTTGCATTCC (sugars kkddddddddddkeke, PS)

>  <Result>
40%

$$$$
>  <Sequence>
GCTGTCACATCTCCAC (sugars kdddddddddkekeke, PS)

>  <Result>
0%

$$$$
>  <Sequence>
CAGGTTCTTGGACTCT (sugars k3 d9 k3 e1, PS)

>  <Result>
0%

$$$$
>  <Sequence>
ACATCTCCACATCAGT (sugars k2 d8 e4 k2, PS)

>  <Result>
24%

$$$$
>  <Sequence>
TGACTGTATTACCTAT (sugars k3 d10 k3, PS)

>  <Result>
18%

$$$$
>  <Sequence>
AGATGGTGTTATCTCC (sugars kkddddddddddkeke, PS)

>  <Result>
0%

$$$$
>  <Sequence>
CTGTCACATCTCCACA (sugars k2 d8 e4 k2, PS)

>  <Result>
11%

$$$$
>  <Sequence>
GACTGTATTACCTATA (sugars k3 d10 k3, PS)

>  <Result>
41%

$$$$
>  <Sequence>
GGTCTGGCCCTTTTGG (sugars k3 d9 k3 e1, PS)

>  <Result>
0%

$$$$
>  <Sequence>
CCACTGTGTACCCCAT (sugars k2 d8 e4 k2, PS)

>  <Result>
44%

$$$$
>  <Sequence>
GCTGTCACATCTCCAC (sugars kkddddddddddkeke, PS)

>  <Result>
8%

$$$$
>  <Sequence>
TCTAGTGTCATGGAAT (sugars k3 d10 k3, PS)

>  <Result>
14%

$$$$
>  <Sequence>
GGTGTATTTCCCTGTC (sugars kkkdddddddddkeke, PS)

>  <Result>
0%

$$$$
>  <Sequence>
CCATTCTATGCCTTTT (sugars k2 d8 e4 k2, PS)

>  <Result>
17%

$$$$
>  <Sequence>
CTTGGTCTTGACCTCC (sugars k3 d10 k3, PS)

>  <Result>
41%

$$$$
>  <Sequence>
GTCTAGTGTCATGGAA (sugars k3 d10 k3, PS)

>  <Result>
38%

$$$$
>  <Sequence>
AAGGGCACAGCGCAGG (sugars kddddddddddkekek, PS)

>  <Result>
0%

$$$$
>  <Sequence>
GAGTCATGGGCTGAGG (sugars kkkddddddddkekek, PS)

>  <Result>
0%

$$$$
>  <Sequence>
AGCTTTCTTGTCTAGT (sugars k3 d10 k3, PS)

>  <Result>
20%

$$$$
>  <Sequence>
GGTCTTGACCTCCCGC (sugars k3 d10 k3, PS)

>  <Result>
33%

$$$$
>  <Sequence>
GTTATCTCCGTCCTGG (sugars kdddddddddkekeke, PS)

>  <Result>
0%

$$$$
>  <Sequence>
CGGTCTTTGAGGTCTG (sugars k3 d9 k3 e1, PS)

>  <Result>
32%

$$$$
>  <Sequence>
AAGGGCACAGACGCAGG (sugars k3 d10 k3 d1, PS)

>  <Result>
0%

$$$$
>  <Sequence>
TGAGTCATGGGCTGAG (sugars kekdddddddddeekk, PS)

>  <Result>
12%

$$$$
>  <Sequence>
AGTGAGACGAGCAAAG (sugars k3 d10 k3, PS)

>  <Result>
16%

$$$$
